Source of measurements: ChEMBL document CHEMBL1123182

A collection of compounds and their measured pKi
Target: Chitin synthase 1 (Candida albicans)
Sequence (P23316 whole entry): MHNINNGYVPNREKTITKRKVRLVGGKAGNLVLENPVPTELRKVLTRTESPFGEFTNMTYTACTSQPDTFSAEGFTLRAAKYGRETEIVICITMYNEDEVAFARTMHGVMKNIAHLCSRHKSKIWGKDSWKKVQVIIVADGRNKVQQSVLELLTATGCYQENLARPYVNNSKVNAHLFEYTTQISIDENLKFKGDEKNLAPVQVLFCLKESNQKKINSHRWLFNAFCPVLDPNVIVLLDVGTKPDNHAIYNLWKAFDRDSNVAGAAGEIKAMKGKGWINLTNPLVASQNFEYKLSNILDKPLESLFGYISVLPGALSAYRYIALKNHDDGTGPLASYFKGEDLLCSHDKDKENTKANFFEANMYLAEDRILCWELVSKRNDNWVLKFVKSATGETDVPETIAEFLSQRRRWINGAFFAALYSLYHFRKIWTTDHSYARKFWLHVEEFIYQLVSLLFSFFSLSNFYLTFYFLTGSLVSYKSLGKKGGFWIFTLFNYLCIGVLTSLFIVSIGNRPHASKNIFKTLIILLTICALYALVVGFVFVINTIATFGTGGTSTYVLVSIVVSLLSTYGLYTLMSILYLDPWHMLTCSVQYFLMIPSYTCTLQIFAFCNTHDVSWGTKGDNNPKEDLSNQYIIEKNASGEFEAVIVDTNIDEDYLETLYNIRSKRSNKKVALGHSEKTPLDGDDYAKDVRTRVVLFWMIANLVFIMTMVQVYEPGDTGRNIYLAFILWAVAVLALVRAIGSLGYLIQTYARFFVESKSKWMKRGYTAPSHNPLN
Assay: Inhibition constant (KI) for the mmf chitin synthetase assay performed at constant inhibitor and varying substrate concentrations
pKi: −log10 of the molar value.
Readout kind: pKi

>>> numeric_value("CCCCC(N)C(=O)NC(C(N)=O)[C@H]1O[C@@H](n2ccc(=O)[nH]c2=O)[C@H](O)[C@@H]1O (stereo not given in full)")
3.61
>>> numeric_value("N[C@@H](Cc1c[nH]c2ccccc12)C(=O)NC(C(=O)O)[C@H]1O[C@@H](n2ccc(=O)[nH]c2=O)[C@H](O)[C@@H]1O (stereo not given in full)")
2.97
>>> numeric_value("CCCCC(NC)C(=O)NC(C(=O)O)[C@H]1O[C@@H](n2ccc(=O)[nH]c2=O)[C@H](O)[C@@H]1O (stereo not given in full)")
3.66
>>> numeric_value("NC(=O)OCC(O)C(O)C(N)C(=O)NC(C(=O)O)[C@H]1O[C@@H](n2cc(C(=O)O)c(=O)[nH]c2=O)[C@H](O)[C@@H]1O (stereo not given in full)")
6.23
>>> numeric_value("NOC(Cc1ccccc1)C(=O)NC(C(=O)O)[C@H]1O[C@@H](n2ccc(=O)[nH]c2=O)[C@H](O)[C@@H]1O (stereo not given in full)")
3.01

====

Biological target: Chitin synthase 1 (Candida albicans) (UniProt P23316)
Assay: Compound was tested for the inhibitory activity against chitin synthetase in the permeabilised cell assay
A collection of compounds and their measured ID50
Readout kind: ID50 (µM)

>>> numeric_value("NC(Cc1ccccc1)C(=O)N/C(=C/c1ccccc1)C(=O)NC(C(=O)O)[C@H]1O[C@@H](n2ccc(=O)[nH]c2=O)[C@H](O)[C@@H]1O (stereo partly drawn)")
80
>>> numeric_value("CCCCCCCC(=O)NC(Cc1ccccc1)C(=O)NC(C(=O)NC(C(=O)O)[C@H]1O[C@@H](n2cc(C(=O)O)c(=O)[nH]c2=O)[C@H](O)[C@@H]1O)C(O)C(O)COC(N)=O (stereo partly drawn)")
50
>>> numeric_value("CCCCC(NC)C(=O)NC(C(=O)O)[C@H]1O[C@@H](n2ccc(=O)[nH]c2=O)[C@H](O)[C@@H]1O (stereo partly drawn)")
97.5
>>> numeric_value("NC(=O)OCC(O)C(O)C(N)C(=O)NC(C(=O)O)[C@H]1O[C@@H](n2cc(C(=O)O)c(=O)[nH]c2=O)[C@H](O)[C@@H]1O (stereo partly drawn)")
1
